The origin of these recorded values is patent US7078382.

biological target: T1, KDR (1-3) (UniProt P35968 20-327, limits assumed); assay: competition ELISA, biotinylated native VEGF (8-109) as tracer, KDR (1-3) captured by mAb MAKD5
T1 construct: domain: KDR (1-3); Soluble KDR (1-3) at 1 ug/ml, captured on the plate by anti-KDR monoclonal antibody MAKD5; also called KDR (1-3) monomer
T1 sequence (P35968 20-327 limits assumed): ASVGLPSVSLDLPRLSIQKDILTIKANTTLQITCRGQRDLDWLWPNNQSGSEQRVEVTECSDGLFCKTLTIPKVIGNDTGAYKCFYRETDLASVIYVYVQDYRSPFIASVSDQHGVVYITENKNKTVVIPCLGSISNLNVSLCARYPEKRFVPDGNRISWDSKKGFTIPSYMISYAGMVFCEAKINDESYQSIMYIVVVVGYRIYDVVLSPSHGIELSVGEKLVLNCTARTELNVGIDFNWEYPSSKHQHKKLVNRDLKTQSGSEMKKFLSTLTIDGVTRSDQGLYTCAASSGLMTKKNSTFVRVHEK
resultType: pIC50
Here pIC50 is given on a logarithmic scale as minus log10 of the concentration in mol/L.

| binder | pIC50 |
| --- | --- |
| LK-VRB-15s (ligand) APMAEGGGQNHHEVVKFMDVLQRSSCHPIETLVDIFQEYPDEIEYIFKPSCVPLMRCGGCCNSEMRECVPTEESNITMQIMRIKPHQGQHIGEMSFLQHNKCECRPKKD | 8.70 |

Field: next binder
Lab book: pIC50 of LK-VRB-17s (ligand) APMAEGGGQNHHEVVKFEDVLRRSYCHPIETLVDIFQEYPDEIEYIFKPSCVPLMRCGGCCNSEMRECVPTEESNITMQIMRIKPHQGQHIGEMSFLQHNKCECRPKKD noted as 8.52
